# Tested on: pigweed
# Test Name: Test A postemergence
# Type: in vivo, Amaranthus retroflexus
# Particulars: 1000 g ai/ha, 0 to 100 scale, 0 no effect, 100 complete control
# Excerpt: […]
Readings of Plant response rating, Pigweed for the listed compounds

Mol Smiles	Plant response rating, Pigweed
C[Si](C)(C)c1cn(-c2c(Br)cccc2Oc2ncc(Cl)cn2)nn1	60
N#CCOc1cccc(Oc2ncc(Cl)cn2)c1-n1cc(Br)cn1	70
CN(C)C(=O)c1cccc(Oc2ncc(Cl)cn2)c1-n1cc(C(F)(F)F)cn1	30

====

# Tested on: field bindweed
# Test Name: Test E preemergence
# Assay type: in vivo, Convolvulus arvensis
# Particulars: 16 g ai/ha, scale 0 to 100 (0 no effect, 100 complete control)

Mol Smiles	Field Bindweed plant response rating
Clc1cnc(Oc2ccccc2-n2cc(Br)cn2)nc1	0
N#Cc1cnn(-c2c(C#N)cccc2Oc2ncc(F)cn2)c1	15
Fc1cccc(Oc2ncc(Cl)cn2)c1-n1cc(I)cn1	0
N#Cc1cccc(Oc2ncc(Br)cn2)c1-n1cc(C(F)(F)F)cn1	0
FCc1cccc(Oc2ncc(Cl)cn2)c1-n1cc(Cl)cn1	0

====

# System: barnyardgrass
# Test Name: Test A preemergence
# Type: in vivo, Echinochloa crus-galli
# Particulars: 500 g ai/ha, 0 to 100 scale, 0 no effect, 100 complete control, approx. 10 days
Items are presented alongside their recorded Barnyardgrass plant response rating.

Compound	Barnyardgrass plant response rating
Cc1ccc(Oc2ncc(Cl)cn2)c(-n2cc(Br)cn2)c1 [Compound 40]	50
CC(C)(C)c1cnn(-c2c(C#N)cccc2Oc2ncc(Cl)cn2)c1 [Compound 82]	30
Oc1cccc(Oc2ncc(Cl)cn2)c1-n1cc(Br)cn1 [Compound 68]	0
N#Cc1cccc(Oc2ncc(I)cn2)c1-n1cc(Cl)cn1 [Compound 75]	70
Brc1cnc(Oc2ccccc2-n2cc(Br)c(Br)n2)nc1 [Compound 24]	0
CC(C)(C)c1ccn(-c2ccccc2Oc2ncc(Cl)cn2)n1 [Compound 29]	20
CCOc1cn(-c2c(Br)cccc2Oc2ncc(Cl)cn2)nn1 [Compound 84]	90
Fc1cnc(Oc2ccccc2-n2cc(Cl)cn2)nc1 [Compound 11]	100
O=Cc1cccc(Oc2ncc(F)cn2)c1-n1cc(Cl)cn1 [Compound 93]	0
N#Cc1cccc(Oc2ncc(I)cn2)c1-n1cc(Br)cn1 [Compound 60]	70
FC(F)(F)c1ccn(-c2ccccc2Sc2ncc(Cl)cn2)n1 [Compound 28]	10
N#Cc1cccc(Oc2ncc(F)cn2)c1-n1cc(Cl)cn1 [Compound 73]	100
FC(F)(F)c1cccc(Oc2ncc(Cl)cn2)c1-n1cc(Br)cn1 [Compound 64]	100
Clc1cnc(Oc2ccccc2-n2cc(Cl)cn2)nc1 [Compound 3]	100
FC(F)(F)c1ccn(-c2ccccc2Oc2ncc(Br)cn2)n1 [Compound 1]	70
CC(=O)c1cccc(Oc2ncc(Cl)cn2)c1-n1cc(Br)cn1 [Compound 96]	30

====

Reported Lambsquarters plant response rating values follow for various compounds
# Tested on: lambsquarters
# Test Name: Test C preemergence
# Format: in vivo, Chenopodium album
# Particulars: 62 g ai/ha, preemergence; scale 0 (no effect) to 100 (complete control)
Assay Readout: Lambsquarters plant response rating

Mol Smiles	Observed Value
Fc1cccc(Oc2ncc(Cl)cn2)c1-n1cc(I)cn1	100
N#Cc1cccc(Oc2ncc(F)cn2)c1-n1cc(Cl)cn1	98
FCc1cccc(Oc2ncc(F)cn2)c1-n1cc(C(F)(F)F)cn1	100
N#Cc1cnn(-c2c(CF)cccc2Oc2ncc(F)cn2)c1	100
